Provenance of the data: ChEMBL document CHEMBL1122462

test system: Rattus norvegicus; assay: In vivo Triglyceride lowering activity at dose as 0.01 % of the diet; type: functional
measurement_type: serum triglyceride level (% of control)

Reference set (3 entries):
CCOC(=O)c1ccc(NCCCCCCCCCCCCCCCC(F)(F)F)cc1 | <75%
CCOC(=O)c1ccc(NCCCCCCCCCCCCCC[Si](C)(C)C)cc1 | <77%
CC(C)(C)CCCCCCCCCCCCNc1ccc(C(=O)O)cc1 | <75%

Hey, quick one: what's serum triglyceride level (% of control) for each of these?
1. O=C(O)c1ccc(NCCCCCCCCCCCSCc2ccccc2)cc1
2. CCCCCC(=O)CCCCCCCCCCNc1ccc(C(=O)O)cc1
3. CCOC(=O)c1ccc(NCC(F)(F)C(F)(F)C(F)(F)C(F)(F)C(F)(F)C(F)(F)C(F)(F)F)cc1
4. C[Si](C)(C)CCCCCCCCCCCCCCNc1ccc(C(=O)[O-])cc1.[Na+]

## Output
1. <55%
2. <59%
3. <47%
4. <55%

----------
system: Rattus norvegicus; experiment: In vivo Triglyceride lowering activity at dose as 0.01 % of the diet; type: functional
measurement_type: serum triglyceride level (% of control) (%)
Give bare numbers, in %.

Study these solved cases before continuing.
CCCCCCCCCCC(N)CCCCCNc1ccc(C(=O)OCC)cc1 (stereo unspecified) | 68
CCOC(=O)c1ccc(NCCCCCCCCCCCBr)cc1 | 83
O=C(CCCCCCCCCCOc1ccc(C(=O)O)cc1)Nc1ccc(C(=O)O)cc1 | 116
O=C(O)c1ccc(NCCCCCCCCCCCO)cc1 | 111
CC(C)CCCCCCCCCCCCCCNc1ccc(C(=O)O)cc1 | 76
O=C(O)c1ccc(NCCCCCCCCCCCC2CCCCC2)cc1 | 73

// for each molecule in input: emit serum triglyceride level (% of control)
1. CCOC(=O)c1ccc(NCCCCCCCCCCCCCCCCBr)cc1
2. CCSCCCCCCCCCCCCCCCCNc1ccc(C(=O)O)cc1
3. CCOC(=O)c1ccc(NCCCCCCCCCCCCCCCC(=O)OC)cc1

## Output
1. 100
2. 62
3. 140

## Input Report serum triglyceride level (% of control) for CCCCCCCCCCCCCCC(C)Nc1ccc(C(=O)OCC)cc1 (stereo unspecified) tested on Rattus norvegicus.
## Output 81

----------
Molecular target: Sterol O-acyltransferase 1 (Rattus norvegicus)
Sequence (whole entry): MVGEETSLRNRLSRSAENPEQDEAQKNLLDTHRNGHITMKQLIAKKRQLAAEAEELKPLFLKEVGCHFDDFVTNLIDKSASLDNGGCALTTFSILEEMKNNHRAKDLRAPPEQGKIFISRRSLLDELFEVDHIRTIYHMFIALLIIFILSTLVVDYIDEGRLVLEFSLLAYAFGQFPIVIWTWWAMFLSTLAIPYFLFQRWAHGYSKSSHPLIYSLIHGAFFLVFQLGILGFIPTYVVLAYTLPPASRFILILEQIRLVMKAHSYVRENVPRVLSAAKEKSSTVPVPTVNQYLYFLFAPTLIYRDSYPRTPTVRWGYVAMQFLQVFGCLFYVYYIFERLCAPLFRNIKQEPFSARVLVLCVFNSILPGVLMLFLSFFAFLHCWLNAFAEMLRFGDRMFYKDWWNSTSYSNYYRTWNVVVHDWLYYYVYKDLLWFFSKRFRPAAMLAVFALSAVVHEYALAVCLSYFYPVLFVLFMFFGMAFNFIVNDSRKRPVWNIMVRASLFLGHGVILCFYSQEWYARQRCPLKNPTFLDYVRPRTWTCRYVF
Assay: In vitro inhibitory activity against acyl coenzyme A:cholesterol acyltransferase
Parameters: concentration or dose not given beside the values
Conditions: concentration not given here
measurement_type: inhibition

Worked examples follow.
CCOC(=O)c1ccc(NCCCCCCCCCCCOc2ccc(C(=O)OC)cc2)cc1 | < 52%
C[Si](C)(C)CCCCCCCCCCCCCCNc1ccc(C(=O)O)cc1 | < 60%
O=C(O)c1ccc(NCC(F)(F)C(F)(F)C(F)(F)C(F)(F)C(F)(F)C(F)(F)C(F)(F)F)cc1 | < 42%
O=C(O)c1ccc(NCCCCCCCCCCCO)cc1 | < 30%
CCCCCCCCCCC(=O)CCCCCNc1ccc(C(=O)OCC)cc1 | < 19%

// input: 2 molecules below; output: inhibition for each
1. CC(C)CCCCCCCCCCCCCCNc1ccc(C(=O)O)cc1
2. CC(C)CCCCCCCCCCCCCNc1ccc(C(=O)O)cc1

## Output
["< 51%", "< 63%"]

Please give inhibition, item by item, for the list that follows.
1. CCOC(=O)c1ccc(NCCCCCCCCCCCCCC[Si](C)(C)C)cc1
2. CCCCCCCCCCC(=O)CCCCCNc1ccc(C(=O)O)cc1
3. CCOC(=O)c1ccc(NCCCCCCCCCCNc2ccc(C(=O)OCC)cc2)cc1
4. CCOC(=O)c1ccc(NCCCCCCCCCCCSc2ccc(C(=O)OCC)cc2)cc1
5. CCCCCCCCCCC(CCCCCNc1ccc(C(=O)OCC)cc1)SC(C)=O (stereo not given)
6. CCCCCCCCCCC(O)CCCCCNc1ccc(C(=O)OCC)cc1 (stereo not given)
7. CCCCCCCCCCC(Cl)CCCCCNc1ccc(C(=O)OCC)cc1 (stereo not given)

## Output
1. < 50%
2. 18%
3. 7%
4. < 45%
5. < 26%
6. < 51%
7. 13%

## Input Bench note: what inhibition did `O=C(O)c1ccc(NCCCCCCCCCCCS)cc1` show?
## Output < 26%
